Molecular target: T1, Bfl-1, biotinylated (C-terminal avi-6His) (human, UniProt Q16548 1-175, biotin (enzymatic, BirA))
T1 chain: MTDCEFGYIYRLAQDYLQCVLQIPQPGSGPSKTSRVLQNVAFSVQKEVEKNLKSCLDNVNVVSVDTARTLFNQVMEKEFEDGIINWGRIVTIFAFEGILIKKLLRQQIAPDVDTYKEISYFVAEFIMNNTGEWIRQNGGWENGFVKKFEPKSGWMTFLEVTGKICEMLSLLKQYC
Experiment: BLI
We label by threshold. Values of Kd strictly beneath 500 nM are t. Values of 500 nM and up are f.

{"BINDER": "F-CDP01 (Bfl-1-targeting computationally designed protein) (designed binder) ADPKKVLDKAKDQAENRVRELKQKLEELYKEARKLDLTQEMRKKLQYAAIGAMLAAIGDILNAIMQAKQEADKLKKAGLVNSQQLDELKRRLEELKEEALRKAHDYGSEFYLKLEY", "LABEL_VALUE": "t"}
{"BINDER": "X-CDP07 (Bcl-xL-targeting computationally designed protein) (designed binder) ADPKKVLDKAKDRAENVVRKLKKELEELYKEARKLDLTQEMRDRIRLAAIAARIAAFGDIFHAIMEALEEARKLKKAGLVNSQQLDELKRRLEELDEEAAQRAEKLGKEFELKLEY", "LABEL_VALUE": "f"}
{"BINDER": "B-ECM01 (enriched combinatorial mutant of B-CDP01) (designed binder) ADPKKILDKAKDQVENRVRELKQELERLYKEARKLDLTQEMRRKLHVRYIAAMLKAIAAILNAIAQAENEADKLKKAGLVNSQQLDELRRRLEELTEEAAQKAHDYGREFQLKLEY", "LABEL_VALUE": "f"}
{"BINDER": "F-ECM04 (enriched combinatorial mutant of F-CDP01) (designed binder) ADPKKVLDKAKDQAENRVRELKQKLEELYKEARKLDLTQEMRKKLEVAALGAVLAAHGDILNAIMQAKEEADKLKKAGLVNSQQLDELKRRLEELKEEALRKASDYGKEFHLKRRY", "LABEL_VALUE": "t"}
{"BINDER": "B-CDP01 (Bcl-B-targeting computationally designed protein) (designed binder) ADPKKVLDKAKDQAENRVRELKQELERLYKEARKLDLTQEMRRKLEWRYIAAMLKAIGDILNAIAQAENEADKLKKAGLVNSQQLDELRRRLEELAKEAARKAHDYGREFQLKLEY", "LABEL_VALUE": "f"}
{"BINDER": "2-CDP06 (Bcl-2-targeting Computationally Designed Protein) (designed binder) MADPKKVLDKAKDEAENRVRELKQKLEELYKEARKLDLTQEMRQELVDKARAASLQAIGDIFYAILRALAEAEKLKKAGLVNSQQLDELKRRLEELAEEARRKAEKLGDEFRLKLEYG", "LABEL_VALUE": "f"}

// data source = paper PMC5127641
